molecular target: glucagon receptor (UniProt P47871 26-477, limits assumed); assay: cell-based or functional assay
Sequence (P47871 26-477 limits assumed): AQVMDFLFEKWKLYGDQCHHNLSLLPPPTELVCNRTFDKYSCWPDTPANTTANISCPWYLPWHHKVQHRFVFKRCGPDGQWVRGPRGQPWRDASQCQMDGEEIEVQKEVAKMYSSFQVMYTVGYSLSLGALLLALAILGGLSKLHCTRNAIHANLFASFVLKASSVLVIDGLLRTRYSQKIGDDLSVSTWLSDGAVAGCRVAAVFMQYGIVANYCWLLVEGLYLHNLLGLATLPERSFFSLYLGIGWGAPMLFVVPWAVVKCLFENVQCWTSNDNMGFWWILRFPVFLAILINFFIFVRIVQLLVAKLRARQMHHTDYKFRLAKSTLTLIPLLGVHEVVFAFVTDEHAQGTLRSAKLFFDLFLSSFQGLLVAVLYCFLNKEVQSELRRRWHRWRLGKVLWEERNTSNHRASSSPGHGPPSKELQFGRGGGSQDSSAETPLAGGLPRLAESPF
Numbered stars: 1 amine (or outer) side, 2 acyl side, 3 side chain; on linkers, the order of the positions; unused ones are H or OH. Square brackets hold non-standard residues; d marks the D form. Side chains are listed from the residue outwards. Ends that are not written are not given here. * marks the point of attachment. γGlu = O=C(O)[C@H](CCC(=O)[*:2])N[*:1]; Palmitoyl = CCCCCCCCCCCCCCCC(=O)*; thioAla = not defined here; Aib = CC(C)(N)C(=O)O
Kindly apply the following: 1 if EC50 at Glucagon Receptor (cAMP luciferase reporter, HEK293) is less than 20 pM, -1 in every other case.

# example entries with known answers
{"binder": "H[Aib]QGTFTSDK([γGlu-Palmitoyl])SKYLDERAAQDFVQWLLEGGPSSGAPPPS-NH2 [peptide of SEQ ID NO: 37]", "qualitative_label": 1}
{"binder": "Ac-[dY]AQGTFTSDK([γGlu-Palmitoyl])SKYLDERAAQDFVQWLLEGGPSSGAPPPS-NH2 [peptide of SEQ ID NO: 12]", "qualitative_label": 1}
{"binder": "[dH]GQGTFTSDK([γGlu-Palmitoyl])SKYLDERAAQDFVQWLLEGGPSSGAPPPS-NH2 [peptide of SEQ ID NO: 23]", "qualitative_label": 1}
{"binder": "Ac-[dY]GQGTFTSDK([γGlu-Palmitoyl])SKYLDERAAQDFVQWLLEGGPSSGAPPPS-NH2 [peptide of SEQ ID NO: 14]", "qualitative_label": 1}

Identify whether the binder [thioAla]GQGTFTSDK([γGlu-Palmitoyl])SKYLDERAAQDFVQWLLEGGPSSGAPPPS-NH2 (reading uncertain) [peptide of SEQ ID NO: 29] records EC50 at Glucagon Receptor (cAMP luciferase reporter, HEK293) below 20 pM.
-1

The values you see were collected from patent US20180105569A1.
